system: KRAS PDC multicell spheroid viability; assay: Anticancer human tumor 825966-067-R-J1-PDC patient-derived colon carcinoma cell line growth inhibition [KRAS2]; details: second compound 10 µM; first compound 10 µM; hits give low values;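 note: spheroids exposed to compounds for 7 days; 100% = DMSO vehicle control viability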
Readout type: viability, T/C (%)
Field format: number, assumed %, no unit text.

Recorded viability, T/C, per entry:
{"Compound": "Cn1nccc1Nc1nccc(-c2cc3c(s2)C(C)(C)N(CCN2CCOCC2)C3=O)n1 + C=CC(=O)N1CCN(c2nc(=O)n(-c3c(C)ccnc3C(C)C)c3nc(-c4c(O)cccc4F)c(F)cc23)C(C)C1", "Test result": 73}
{"Compound": "COC(=O)c1ccc2c(C(=Nc3ccc(N(C)C(=O)CN4CCN(C)CC4)cc3)c3ccccc3)c(O)[nH]c2c1 + COc1cc2nc(C)nc(NC(C)c3cc(N)cc(C(F)(F)F)c3)c2cc1OC1CCOC1", "Test result": 0.58}
{"Compound": "O=C(c1cc(Cc2n[nH]c(=O)c3ccccc23)ccc1F)N1CCN(C(=O)C2CC2)CC1 + CC1OCC2(CCN(c3cnc(Sc4ccnc(N)c4Cl)c(N)n3)CC2)C1N", "Test result": 17.6}
{"Compound": "CC(C)NCC(C(=O)N1CCN(c2ncnc3c2C(C)CC3O)CC1)c1ccc(Cl)cc1 (stereo not given) + COc1cc2nc(C)nc(NC(C)c3cc(N)cc(C(F)(F)F)c3)c2cc1OC1CCOC1", "Test result": 3.53}

Now let's try a different one.
Exercise: Give reported viability, T/C value for CC1(C)CCC(CN2CCN(c3ccc(C(=O)NS(=O)(=O)c4ccc(NCC5CCOCC5)c([N+](=O)[O-])c4)c(Oc4cnc5[nH]ccc5c4)c3)CC2)=C(c2ccc(Cl)cc2)C1 + COc1cc2nc(C)nc(NC(C)c3cc(N)cc(C(F)(F)F)c3)c2cc1OC1CCOC1
Solution: 0.72
